The origin of these recorded values is the supplement of paper PMC7125110.

B1: glmS ribozyme (parent)
chain: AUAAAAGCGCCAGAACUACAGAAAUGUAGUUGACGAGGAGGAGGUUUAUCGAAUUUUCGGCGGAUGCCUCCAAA

Variants of: B1
PROCEDURE_TEXT: self-cleavage kobs at 2500 uM GlcN6P; higher = faster cleavage; RNA array
RUN_PARAMETERS: with glucosamine-6-phosphate
Variants at the floor of the assay were thinned out.
Could you label it label 1 if measured self-cleavage kobs at 2500 uM GlcN6P is 0.0002 s⁻¹ or higher, and label 0 otherwise?

Q: Determine whether measured self-cleavage kobs at 2500 uM GlcN6P meets or exceeds 0.0002 s⁻¹ for AUAAAAGCGCGAGAACUACAGAAAUGUAGUUGACGAGGAGGAGGUUUAUCGAAUUUUCGGCGGAUGCCGCCAAA [C11G U69G]
Result: label 0

Q: Determine whether measured self-cleavage kobs at 2500 uM GlcN6P meets or exceeds 0.0002 s⁻¹ for AUAAAAGCGCUGGAACUACAGAAAUGUAGUUGACGAGGAGGAGGUUUAUCGAAUUUUCGGCGGAUGACUCCAAA [C11U A12G C67A]
Result: label 1

Q: Determine whether measured self-cleavage kobs at 2500 uM GlcN6P meets or exceeds 0.0002 s⁻¹ for AUAAAAGCGCCAGAACUACAGAAAUGUAGUUGACGAGGAGGAGGUUUAUCGAAUUUUCGGCGGAAUCCUCCAAA [U65A G66U]
Result: label 1

Q: Determine whether measured self-cleavage kobs at 2500 uM GlcN6P meets or exceeds 0.0002 s⁻¹ for AUAAUAGCGGCAGAACUACAGAAAUGUAGUUGACGAGGAGGUGGUUUAUCGAAUUUCCGGCGGAUGCCUACAAA [A5U C10G A42U U57C C70A]
Result: label 0

Q: Determine whether measured self-cleavage kobs at 2500 uM GlcN6P meets or exceeds 0.0002 s⁻¹ for AUAAAAUAGCCAGAACUACAGAAAUGUAGUUGACGAGGAGGAGGUUUAUCGAAUUUUCGGCGGAUGCCUCCAAA [G7U C8A]
Result: label 0

Q: Determine whether measured self-cleavage kobs at 2500 uM GlcN6P meets or exceeds 0.0002 s⁻¹ for AUAAAAGAGCCAGAACUACAGAAAUGUAGUUGACGAGGACGAGGUUUAUCGAAUUUUCGGCGGAUGACUCCAAA [C8A G40C C67A]
Result: label 0

Q: Determine whether measured self-cleavage kobs at 2500 uM GlcN6P meets or exceeds 0.0002 s⁻¹ for AUAAAAGCGCCAGAACUACAGAAAUGUAGUUGACGUGGAGGUGGUUUAUCGAAUUUUCGGCGGAUGCCUCCAAA [A36U A42U]
Result: label 0

Q: Determine whether measured self-cleavage kobs at 2500 uM GlcN6P meets or exceeds 0.0002 s⁻¹ for AUAAAAGCGCCAGAACUACAGAAAUGUAGUUGACGAGGAGGCGGUUGAUCGAAUUUUCGGCGGAUGCCUCCAAA [A42C U47G]
Result: label 0

Q: Determine whether measured self-cleavage kobs at 2500 uM GlcN6P meets or exceeds 0.0002 s⁻¹ for AUAAAAGCGCCAGAAGUACAGAAAUGUAGUUGACGAGGGGGAGGUUUAUCGAAUUUUCGGCGGAUGCCUCUAAA [C16G A39G C71U]
Result: label 1

Q: Determine whether measured self-cleavage kobs at 2500 uM GlcN6P meets or exceeds 0.0002 s⁻¹ for AUAAAAGCGCCAGAACUACAGAAAUGUAGUUAACGAGGAGGAGGUUUAUCGAAUUUUCGGCGGAUGCCUGCAAA [G32A C70G]
Result: label 0

Q: Determine whether measured self-cleavage kobs at 2500 uM GlcN6P meets or exceeds 0.0002 s⁻¹ for AUAAAAGCGCCAUAACUACAGAAAUGUAGUUGAUGAGGGGGAGGUUUAUCGAAUUUUCGGCAGAUGCCUCCAAA [G13U C34U A39G G62A]
Result: label 0

Q: Determine whether measured self-cleavage kobs at 2500 uM GlcN6P meets or exceeds 0.0002 s⁻¹ for AUAAAAGCGCCAGCACUACAGAAAUGUAGUUGACGAGGAGGAGGUUUAUCGAAUUUUCGGCGGAUGCAUCCAAA [A14C C68A]
Result: label 0

Q: Determine whether measured self-cleavage kobs at 2500 uM GlcN6P meets or exceeds 0.0002 s⁻¹ for AUAAAAGCGCCAGAGCUACAGAAAUGUAGUUGACGAGGAGGAGGUUUAUCGAAUUUUCGGCGCAUGCCUCCAAA [A15G G63C]
Result: label 0

Q: Determine whether measured self-cleavage kobs at 2500 uM GlcN6P meets or exceeds 0.0002 s⁻¹ for AUAAAAGCGCCAGAACUACAGAAAUGUAGUUCACGAGGAGGGGGUUUAUCGAAUUUUCUGCGGAUGCCUCCAAA [G32C A42G G59U]
Result: label 0

Q: Determine whether measured self-cleavage kobs at 2500 uM GlcN6P meets or exceeds 0.0002 s⁻¹ for AUAAAAGCACCAGAACUACAGAAAUGUAGUUGACGAGGAGGAGGUUUAUCGUAUUUUCGGCGGAUGCCUCCAAA [G9A A52U]
Result: label 0
